Test system: SW-620
Experiment: NCI tumour cell line growth inhibition, 48 h
The source made the active and inactive calls. Rule as the data show it: active = GI50 up to about 1.1 µM and inactive = higher.
Classes used: active, inactive

{"columns": ["molecule", "assigned_category"],
 "data": [
  ["COC(=O)c1ccc(Nc2nc3[nH]cnc3c(=O)[nH]2)cc1", "inactive"],
  ["COC(=O)C(CCCN1C(=O)c2ccccc2C1=O)C(=O)OC", "inactive"],
  ["COc1ccc2c(c1)OCCCN(C)OC2c1ccccc1 (stereo unspecified)", "inactive"],
  ["CCOC(=O)c1ccc(-c2onc(C)c2Br)[nH]1", "inactive"],
  ["COc1ccc2oc3c(C)cc4c(OC)nnc(OC)c4c3c2c1", "inactive"],
  ["CCOc1ccc2[nH]c3c(C)c4cc[n+](C)cc4c(C)c3c2c1", "inactive"],
  ["C/C=C(\\CCOS(=O)(=O)c1ccc(C)cc1)[Si](C)(C)C", "inactive"],
  ["O=C(O)CCC(c1ccccc1)(c1ccccc1)c1ccccc1", "inactive"],
  ["N#Cc1c2ccccc2cn1-c1ccc(F)cc1", "inactive"],
  ["O=C1CCC23CC(C=CC=C12)n1c(=O)n(-c2ccccc2)c(=O)n13 (stereo unspecified)", "inactive"],
  ["Cc1ccc(-c2cn3c(nc4ccccc43)c(-c3ccccc3)n2)cc1", "inactive"],
  ["CCCCCCCCCCCCCCCCCCOc1ccc(/C=C/C2=[N+](CCCl)CCO2)cc1", "inactive"],
  ["CC(C)=CCC/C(C)=C/C=C/C(C)=C/C1C[C@@]2(C(O)O1)[C@H](CCCO)/C(=C(/C)C=O)CC[C@]2(C)O (stereo partly specified)", "inactive"],
  ["C[C@H](C(=O)N1C(=O)O[C@@H](c2ccccc2)[C@H]1C)[C@H](c1ccccc1)N(Cc1ccccc1)OC(=O)c1ccccc1", "inactive"],
  ["N#CC12CCC1C1CCCCC12N1CCSCC1 (stereo unspecified)", "inactive"],
  ["S=C(N/N=C/c1ccco1)NC12CC3CC(CC(C3)C1)C2", "inactive"],
  ["CCCCCCCCCCCCOCC1(COCCCCCCCCCCCC)COC(c2ccc(N)cc2)OC1", "inactive"],
  ["O=c1c(Br)cc2c(-c3ccccc3)c3cc(Br)c(O)c(Br)c3oc-2c1Br", "inactive"],
  ["CC(C(=O)NCNC(=O)c1ccccc1)C(=O)Nc1ccccc1 (stereo unspecified)", "inactive"],
  ["COc1cc(/C=C2\\N=C(c3ccccc3)N(c3cc4cc(Sc5ccccc5)ccc4[nH]3)C2=O)cc(OC)c1OC", "inactive"],
  ["CC(N/N=C(\\S)N1CCN(c2ccccn2)CC1)c1nccc2ccccc12 (stereo unspecified)", "active"],
  ["CCc1cc(O)c(Cl)c(C)c1Cl", "inactive"],
  ["COc1cc(C2c3c(ccc4ccccc34)C(=O)C3CCC(=O)N32)cc(OC)c1OC (stereo unspecified)", "inactive"],
  ["CC12CC(c3ccccc3O1)C(C(=O)Nc1ccc(F)cc1)C(=O)N2 (stereo unspecified)", "inactive"],
  ["CC(=O)Oc1ccc(-c2cc3ccccc3oc2=O)cc1OC(C)=O", "inactive"],
  ["COc1ccc(-c2nc3ccc([N+](=O)[O-])cc3c(=O)[nH]2)cc1", "inactive"],
  ["O=C(COC(=O)c1cccc2c(=O)c3ccccc3[nH]c12)Nc1ccccc1", "inactive"],
  ["COc1ccc(C(=O)CC(c2ccccc2)[C@H]2C(c3ccc(OC)cc3)=Nc3c(nc(SC)n(C)c3=O)NC2c2ccccc2)cc1 (stereo partly specified)", "inactive"],
  ["CN(C)CC(O)CNC(=O)Nc1ccccc1 (stereo unspecified)", "inactive"],
  ["O=C1C(Cl)C2(CC(/C=C/c3ccccc3)=NN2c2cccc(S(=O)(=O)O)c2)N1c1nc2ccccc2s1 (stereo unspecified)", "inactive"],
  ["COc1ccc(-c2nnc(CCCCCCCCc3nnc(-c4ccc(OC)cc4)o3)o2)cc1", "inactive"]
]}

###

Test system: SR
Test: NCI tumour cell line growth inhibition, 48 h
Activity calls are given as the source filed them. Cut-off read from the data, not from the text of the source: active = GI50 up to about 1.1 µM and inactive = higher.
Classes used: class 1 for active, class 0 for inactive

{"columns": ["compound", "assigned_category"],
 "data": [
  ["COc1cc2c(c(OC)c1OC)C(=O)NCCC2", "class 0"],
  ["COc1cc(C2c3cc4c(cc3[C@@H](OCCN)[C@H]3COC(=O)C23)OCO4)cc(OC)c1O (some centres undefined)", "class 1"],
  ["CCCCNC(=O)N/C=C1\\C(=O)Oc2ccccc2C1=O", "class 0"],
  ["CSc1ncnc2c1ncn2CCC(=O)OC(C)(C)C", "class 0"],
  ["C=C1C(C)C2C(Cc3ccccc3)NC(=O)C23C(OC(C)=O)/C=C/C(C)(O)CC(C)C/C=C/C3C1O (centres undefined)", "class 0"],
  ["COC(=O)NN=C(c1ccc(Cl)cc1)c1ccc(Cl)cc1", "class 0"],
  ["Cn1c(N/N=C/c2ccccc2)nc(-c2ccc([N+](=O)[O-])cc2)c(C#N)c1=O", "class 0"],
  ["CC(C)(C)OC(=O)N1C(OP(=O)(Oc2ccccc2)Oc2ccccc2)=COc2cccnc21", "class 0"],
  ["CC(=O)Oc1ccc(-c2cc3ccccc3oc2=O)cc1OC(C)=O", "class 0"],
  ["O=C(NCCC1CN(S(=O)(=O)C(F)(F)F)c2ccccc21)OCc1ccccc1 (centres undefined)", "class 0"],
  ["O=c1c2ccccc2nc(-c2ccccc2)n1NC(=S)Nc1ccc(Cl)cc1", "class 0"],
  ["NC1=C(c2nc(-c3ccccc3)cs2)C(c2ccco2)c2c(c3ccccc3oc2=O)O1 (centres undefined)", "class 0"],
  ["O=C1C(c2c(O)[nH]c3ccc(Br)cc23)=Nc2ccc(Br)cc21", "class 0"],
  ["COc1ccc(-c2cc(-c3cc(F)c(Cl)cc3Cl)[nH]n2)cc1OC", "class 0"]
]}

###

System: A498
Assay: NCI tumour cell line growth inhibition, 48 h
Activity calls are given as the source filed them. Rule as the data show it: active = GI50 up to about 1.1 µM and inactive = higher.
Items are presented alongside their recorded GI50.
measurement_kind: GI50

{"columns": ["molecule", "measurement_target", "value_reported"],
 "data": [
  ["COc1nncc2[nH]c(-c3ccccc3)cc12", "A498", "22.3 µM (inactive)"],
  ["CCCCCCCCCCCCCC(=O)OC1C(CO)OC(=O)C1O (stereo not drawn)", "A498", "> 100 µM (inactive)"],
  ["Cc1nn2c(=O)c([N+](=O)[O-])c(/C=C/c3ccccc3)nc2s1", "A498", "10.4 µM (inactive)"]
]}

###

Test system: NCI-H23
Experiment: NCI tumour cell line growth inhibition, 48 h
Activity calls are given as the source filed them. Rule as the data show it: active = GI50 up to about 1.1 µM and inactive = higher.
Classes used: t (active), f (inactive)

{"columns": ["compound", "assigned_category"],
 "data": [
  ["N=C(N)NCC[C@H](NC(=O)OCCCCCn1ccc(=O)[nH]c1=O)C(=O)O", "f"],
  ["O=C(N/N=C\\c1ccc(Cl)cc1)Nc1cccc2ccccc12", "f"],
  ["COc1ccc2nc(-c3ccccn3)cc(O)c2c1", "f"],
  ["O=C1CC(NC(=O)C(F)(F)F)c2c(Br)sc(N3CCC(c4ccccc4)CC3)c21 (stereo unspecified)", "f"],
  ["COC1=CC(=O)c2c(cc3c(c2O)-c2c(OC)cc4cc5c(c(O)c4c2OC(=O)CC(C)(O)C3)C(=O)CC(C)(O)C5)C1=O (stereo unspecified)", "t"],
  ["CCOC(=O)c1ccc(-c2onc(C)c2Br)[nH]1", "f"],
  ["CC(=O)N[C@@H](Cc1ccc(O)cn1)C(=O)NCc1cccc(F)c1", "f"],
  ["CCC(/C=C/c1ccccc1)=N\\N=C(\\C=C\\c1ccccc1)CC", "f"],
  ["CC1=C(C(=O)CC(=O)C(=O)NC2C3CC4CC(C3)CC2C4)Sc2ccccc2N1 (stereo unspecified)", "f"],
  ["CN(C)CC1=Nc2cccc3cccc(c23)N1", "f"],
  ["CN1Cc2c(ccc3c2OCO3)[C@@H]2[C@H](O)Cc3cc4c(cc3[C@@H]21)OCO4", "f"],
  ["C[n+]1c2ccccc2c2/c(=C\\C#N)c3ccccc3n21", "f"],
  ["CC(=O)NC1C(OCc2ccccc2)OC(COC(=O)CCCCCCCCCCNC(=O)c2cccc3c(=O)c4ccccc4[nH]c23)C(O)C1OC(C)C(=O)NC(C)C(=O)NC(CCC(N)=O)C(N)=O (stereo unspecified)", "f"],
  ["CC1C2Cc3ccc(O)cc3C1(C)CCN2C (stereo unspecified)", "f"],
  ["COc1cccc(NCC(=O)Nn2c(-c3ccccc3)nc3ccccc3c2=O)c1", "f"],
  ["CN(C)CCCCC1CCN(CC(=O)N2c3ccccc3NC(=O)c3ccccc32)CC1", "f"],
  ["O=C(CN1c2ccccc2Sc2ccccc21)N1CCNCC1", "f"],
  ["CCc1n[nH]c(=O)n1N=C(c1ccccc1)c1ccccc1", "f"],
  ["COC1OC2COC(C)(C)OC2C(OC(C)=O)C1NC(=O)N(CCCl)N=O (stereo unspecified)", "f"],
  ["COc1ccc(C(=O)CC(c2ccccc2)[C@H]2C(c3ccc(OC)cc3)=Nc3c(nc(SC)n(C)c3=O)NC2c2ccccc2)cc1 (stereo partly specified)", "f"],
  ["CCCCCCCCCCCCOCC1(COCCCCCCCCCCCC)COC(c2ccc(N)cc2)OC1", "f"]
]}
